Tested Target: human plasma kallikrein (human, UniProt P03952 20-638)
Sequence (P03952 20-638 limits assumed): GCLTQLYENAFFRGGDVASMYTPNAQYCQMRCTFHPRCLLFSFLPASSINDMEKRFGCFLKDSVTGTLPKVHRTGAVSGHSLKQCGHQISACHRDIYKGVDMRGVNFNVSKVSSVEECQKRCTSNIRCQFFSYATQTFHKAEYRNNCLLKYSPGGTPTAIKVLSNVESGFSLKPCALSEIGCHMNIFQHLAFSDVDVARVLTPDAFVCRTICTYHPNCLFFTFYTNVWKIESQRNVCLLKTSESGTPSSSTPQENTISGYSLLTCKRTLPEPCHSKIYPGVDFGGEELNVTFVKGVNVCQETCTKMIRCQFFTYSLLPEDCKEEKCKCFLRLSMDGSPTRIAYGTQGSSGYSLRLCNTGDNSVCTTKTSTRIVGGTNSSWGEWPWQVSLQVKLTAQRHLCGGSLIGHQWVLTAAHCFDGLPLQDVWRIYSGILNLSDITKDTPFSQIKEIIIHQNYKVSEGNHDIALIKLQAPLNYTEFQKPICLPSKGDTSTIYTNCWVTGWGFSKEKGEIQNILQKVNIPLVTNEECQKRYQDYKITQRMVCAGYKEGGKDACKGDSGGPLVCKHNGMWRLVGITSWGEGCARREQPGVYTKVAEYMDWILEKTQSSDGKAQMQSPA
Assay Info: enzyme inhibition, plasma kallikrein (apparent Ki)
Readout Name: Ki

Binder: placental bikunin (102-159) expressed in yeast strain SC101 (recombinant 2.4) and purified (other, also called placental bikunin C-terminal domain) YEEYCTANAVTGPCRASFPRWYFDVERNSCNNFIYGGCRGNKNSYRSEEACMLRCFRQ
Readout Name: Ki
Test Result: 0.35 nM
